- PROTOCOL_DESCRIPTION: CellTiter-Glo cell viability assay, HEK293T WT
- REPORTED_CONDITIONS: human, HEK293T WT cells, HEK293T WT Cell viability (% of controll), 6.4 μM; 72 h; dose–response, individual replicates
OBSERVABLE: viability at 72 h, 6.4 µM (%)

molecule="CNCC#Cc1cccc(CN2C(=O)C3=C(CCN(Cc4ccc(-n5cc(-c6ccccc6)nn5)cc4)C3)N3CCN=C23)c1 [38b]" observable="viability at 72 h, 6.4 µM" measured=0

---

- Test system: Fadu cells
- PROTOCOL_DESCRIPTION: CellTiter-Glo luminescent cell viability assay, Fadu
- REPORTED_CONDITIONS: Fadu; 25 µM; 72 h; second-set screening; mean ± SD, n = 2
Listed below: Cell Viability (% of Control) 25 µM values for each entry.
OBSERVABLE: Cell Viability (% of Control) 25 µM

compound="O=C1C2=C(CCN(Cc3ccc(-n4cc(-[c-]5cccc5)nn4)cc3)C2)N2CCN=C2N1Cc1cccc(C#CCN2CCCCC2)c1.[Fe+2].c1cc[cH-]c1 [40a]" tested_target="Fadu cells" measured="45 ± 34 % of Control"
compound="CNCC#Cc1cccc(CN2C(=O)C3=C(CCN(Cc4ccc(-n5cc(-[c-]6cccc6)nn5)cc4)C3)N3CCN=C23)c1.[Fe+2].c1cc[cH-]c1 [38a]" tested_target="Fadu cells" measured="0 ± 0 % of Control"
compound="NCc1cccc(CN2C(=O)C3=C(CCN(Cc4ccc(-n5cc(-[c-]6cccc6)nn5)cc4)C3)N3CCN=C23)c1.[Fe+2].c1cc[cH-]c1 [37a]" tested_target="Fadu cells" measured="0 ± 0 % of Control"
compound="NCC#Cc1cccc(CN2C(=O)C3=C(CCN(Cc4ccc(NC(=O)[c-]5cccc5)cc4)C3)N3CCN=C23)c1.[Fe+2].c1cc[cH-]c1 [23a]" tested_target="Fadu cells" measured="61 ± 20 % of Control"
compound="O=C1C2=C(CCN(Cc3ccc(-n4cc(-[c-]5cccc5)nn4)cc3)C2)N2CCN=C2N1Cc1cccc(C#CCN2CCOCC2)c1.[Fe+2].c1cc[cH-]c1 [42a]" tested_target="Fadu cells" measured="55 ± 12 % of Control"
compound="NCC#Cc1ccc(CN2C(=O)C3=C(CCN(Cc4ccc(-n5cc(-[c-]6cccc6)nn5)cc4)C3)N3CCN=C23)cc1.[Fe+2].c1cc[cH-]c1 [I/A, reference compound]" tested_target="Fadu cells" measured="0 ± 0 % of Control"
compound="NCC#Cc1cccc(CN2C(=O)C3=C(CCN(Cc4ccc(C(=O)N[c-]5cccc5)cc4)C3)N3CCN=C23)c1.[Fe+2].c1cc[cH-]c1 [33a]" tested_target="Fadu cells" measured="9 ± 8 % of Control"
compound="CN(C)CC#Cc1cccc(CN2C(=O)C3=C(CCN(Cc4ccc(-n5cc(-[c-]6cccc6)nn5)cc4)C3)N3CCN=C23)c1.[Fe+2].c1cc[cH-]c1 [39a]" tested_target="Fadu cells" measured="13 ± 15 % of Control"
compound=NCC#Cc1cccc(CN2C(=O)C3=C(CCN(Cc4ccc(-n5cc(-[c-]6cccc6)nn5)cc4)C3)N3CCN=C23)c1.[Fe+2].c1cc[cH-]c1 tested_target="Fadu cells" measured="0 ± 0 % of Control"
